Would you kindly list IC50 for each of these molecules?
# Target: hP2X3 (Homo sapiens, UniProt P56373)
# Construct: expressed in transfected cells; host or cells: e.g. HEK293 or 1321N1
# Sequence (P56373 1-397): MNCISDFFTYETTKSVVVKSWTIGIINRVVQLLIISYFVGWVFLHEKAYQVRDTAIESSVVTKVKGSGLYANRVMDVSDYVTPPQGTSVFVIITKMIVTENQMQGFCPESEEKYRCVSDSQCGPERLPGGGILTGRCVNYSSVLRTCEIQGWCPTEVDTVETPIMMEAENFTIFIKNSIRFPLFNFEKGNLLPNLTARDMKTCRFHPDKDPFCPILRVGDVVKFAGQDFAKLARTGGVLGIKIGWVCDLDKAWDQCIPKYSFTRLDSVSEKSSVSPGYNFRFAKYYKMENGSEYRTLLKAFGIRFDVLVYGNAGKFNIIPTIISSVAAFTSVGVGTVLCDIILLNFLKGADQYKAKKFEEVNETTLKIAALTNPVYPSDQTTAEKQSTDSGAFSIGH
# Test Summary: Calcium uptake assay (P2X antagonist assay), P2X3 homomer
# Assay type: cell-based
# Recorded Conditions: calcium uptake assay, hP2X3; read-out: IC50 hP2X3 (nM), Ca Influx

>>> df
                                   molecule  property   result_value
0  Cc1ccc(-c2cc(C(=O)N[C@@H](C)c3cnc(C)nc3)cc(C(=O)N3CCCC3)c2)cc1 [Compound 93]      IC50  100 to 500 nM
1  Cc1ccc(-c2cc(C(=O)NC(CCO)c3ccc(C(F)(F)F)nc3)cc(C(=O)N3CCCC3)c2)cc1 (centres unmarked) [Compound 83]      IC50  100 to 500 nM
2  Cc1ccc(-c2cc(C(=O)NCc3ccc(C(F)(F)F)nc3)cc(C(=O)N3CC[C@@H](O)C3)c2)nc1 [Compound 146]      IC50       < 100 nM
3  Cc1ccc(-c2cc(C(=O)NCc3ccc(C(F)(F)F)nc3)cc(C(=O)N3CCCC3)c2)cc1 [Compound 47]      IC50  100 to 500 nM
4  Cc1ccc(-c2cc(C(=O)N[C@H](C)c3ccc(C(F)(F)F)nc3)cc(C(=O)N3CCC3)c2)cc1 [Compound 75]      IC50       < 100 nM

Look up IC50 for the entries below, preserving their order.
1. Cc1ccc(-c2cc(C#N)cc(C(=O)NCc3cnc(C)nc3)c2)cc1 [Compound 154]
2. Cc1ccc(-c2cc(C(=O)NCc3cccc(-n4cnnc4)c3)cc(C(=O)N3CCCC3)c2)cc1 [Compound 159]
3. Cc1ncc(CNC(=O)c2cc(C(=O)N3CCCC3)cc(-c3ccc(Cl)cc3)c2)cn1 [Compound 40]
4. Cc1ccc(-c2cc(C(=O)NC(C)c3ccc(C)nc3)cc(C(=O)N3CCCC3)c2)nc1 (centres unmarked) [Compound 118]
5. Cc1ccc(-c2cc(C(=O)NC(C)c3ccc(Cl)c(S(C)(=O)=O)c3)cc(S(C)(=O)=O)c2)cc1 (centres unmarked) [Compound 26]

Key:
100 to 500 nM
100 to 500 nM
< 100 nM
< 100 nM
< 100 nM

----------
# Target: hP2X2/3H (Homo sapiens, UniProt P56373+Q9UBL9)
# Construct: expressed in transfected cells; host or cells: e.g. HEK293 or 1321N1
# Sequence (Q9UBL9 1-471): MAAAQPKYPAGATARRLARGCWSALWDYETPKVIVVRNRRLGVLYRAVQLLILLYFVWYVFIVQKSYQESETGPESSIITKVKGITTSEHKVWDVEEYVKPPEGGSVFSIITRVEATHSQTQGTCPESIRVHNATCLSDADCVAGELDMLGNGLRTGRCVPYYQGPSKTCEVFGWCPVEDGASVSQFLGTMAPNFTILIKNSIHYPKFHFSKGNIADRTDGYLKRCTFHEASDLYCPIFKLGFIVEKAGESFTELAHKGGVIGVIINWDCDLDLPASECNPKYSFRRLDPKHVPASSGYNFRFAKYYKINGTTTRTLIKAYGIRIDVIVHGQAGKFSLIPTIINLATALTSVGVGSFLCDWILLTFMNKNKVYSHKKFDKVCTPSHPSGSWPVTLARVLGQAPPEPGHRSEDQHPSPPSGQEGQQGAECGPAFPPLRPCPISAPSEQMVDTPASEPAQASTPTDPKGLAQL
# Sequence (P56373 1-397): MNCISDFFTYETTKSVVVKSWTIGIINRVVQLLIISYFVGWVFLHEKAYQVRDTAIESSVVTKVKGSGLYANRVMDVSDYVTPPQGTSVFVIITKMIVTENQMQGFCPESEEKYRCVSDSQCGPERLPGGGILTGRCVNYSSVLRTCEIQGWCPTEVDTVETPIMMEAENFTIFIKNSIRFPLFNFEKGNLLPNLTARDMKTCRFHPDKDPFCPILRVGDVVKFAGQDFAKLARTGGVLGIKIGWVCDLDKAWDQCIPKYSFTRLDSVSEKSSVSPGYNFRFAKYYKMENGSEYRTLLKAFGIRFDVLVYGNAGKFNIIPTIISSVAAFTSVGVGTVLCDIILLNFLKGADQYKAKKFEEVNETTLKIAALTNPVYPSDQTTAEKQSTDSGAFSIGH
# Test Summary: Calcium uptake assay (P2X antagonist assay), P2X2/3 heteromer
# Assay type: cell-based
# Recorded Conditions: Ca influx (calcium uptake assay), hP2X2/3H; read-out: IC50 hP2X2/3H
Exercise: for every item that follows, state its recorded IC50.

Below are worked cases with known answers.
In [3]: df
Out[3]:
                                   molecule   result_value
0  Cc1ccc(-c2cc(OCC3COCCO3)cc(C(=O)N[C@H](C)c3ccc(C)nc3)c2)nc1 (stereo partly drawn) [Compound 332]  100 to 500 nM
1  Cc1ccc(-c2cc(C(=O)N[C@H](C)c3cnc(C)nc3)cc(C(O)C(C)C)c2)cc1 (stereo partly drawn) [Compound 397]       < 100 nM

Batch: IC50 for all items listed.
1. Cc1ccc(-c2cc(Oc3ccccn3)cc(C(=O)N[C@H](C)c3ccc(C)nc3)c2)cc1 [Compound 242]
2. Cc1ccc(-c2cc(Oc3ncccn3)cc(C(=O)N[C@H](C)c3ccc(C)nc3)c2)c(C#N)c1 [Compound 246]
3. Cc1ccc(-c2cc(OC(C)CO)cc(C(=O)N[C@H](C)c3ccc(C)nc3)c2)c(C#N)c1 (stereo partly drawn) [Compound 377]
4. Cc1ccc(-c2cc(C(=O)N[C@H](C)c3ccc(C)nc3)cc(C(O)c3ccccc3)c2)c(C#N)c1 (stereo partly drawn) [Compound 279]
5. CCN(CC)CC(O)c1cc(C(=O)N[C@H](C)c2ccc(C)nc2)cc(-c2ccc(C)cn2)c1 (stereo partly drawn) [Compound 342]

Key:
< 100 nM
100 to 500 nM
< 100 nM
< 100 nM
100 to 500 nM

For each of the molecules below, note its IC50.
1. Cc1ccc(-c2cc(OCC3CNCCO3)cc(C(=O)N[C@H](C)c3ccc(C)nc3)c2)nc1 (stereo partly drawn) [Compound 349]
2. Cc1ccc(-c2cc(OCCO)cc(C(=O)NCc3ccc(C)nc3)c2)cc1 [Compound 301]
3. Cc1ccc(-c2cc(Oc3nc4ccccc4s3)cc(C(=O)N[C@H](C)c3ccc(C)nc3)c2)nc1 [Compound 376]
4. Cc1ccc(-c2cc(C(=O)N[C@H](C)c3cnc(C)nc3)cc(C(O)c3ccccn3)c2)cc1 (stereo partly drawn) [Compound 268]
5. Cc1ccc(-c2cc(C(=O)N[C@H](C)c3ccc(C)nc3)cc(C(O)c3cncn3C)c2)cc1 (stereo partly drawn) [Compound 330]
6. Cc1ccc(-c2cc(C(=O)N[C@H](C)c3cnc(C)nc3)cc(S(=O)(=O)C(C)C)c2)cc1 [Compound 198]
7. Cc1ccc(-c2cc(C(=O)N[C@H](C)c3ccc(C)nc3)cc(C(=O)c3ccccc3)c2)cc1 [Compound 229]
8. COCCOc1cc(C(=O)N[C@H](C)c2ccc(C)nc2)cc(-c2ccc(C)cn2)c1 [Compound 265]

Key:
1: 100 to 500 nM; 2: 100 to 500 nM; 3: < 100 nM; 4: < 100 nM; 5: < 100 nM; 6: < 100 nM; 7: < 100 nM; 8: 100 to 500 nM

Data provenance: patent US8946439B2
